Test system: OVCAR-5
MEASUREMENT_NOTES: NCI tumour cell line growth inhibition, 48 h
Active and inactive are the calls of the source. Cut-off read from the data, not from the text of the source: active = GI50 up to about 1.1 µM and inactive = higher.

| COMPOUND | GI50 |
| --- | --- |
| Nc1cc(S(=O)(=O)O)cc2cc(S(=O)(=O)O)c(/N=N/c3ccc(-c4ccc(/N=N/c5c(S(=O)(=O)O)cc6cc(S(=O)(=O)O)cc(N)c6c5O)cc4)cc3)c(O)c12 | > 100 µM (inactive) |
| CC(O)(CNS(=O)(=O)c1ccccc1)c1ccccc1 (configuration not stated) | > 100 µM (inactive) |
| O=C(/C(=C/c1cccs1)c1ccccc1)c1ccccc1 | > 100 µM (inactive) |
| CC(C)(C)OC(=O)N(CCCCNC(=O)C(F)(F)F)CCCNC(=O)C(F)(F)F | > 100 µM (inactive) |
| CN(C)CC1CCC(CN(C)C)C(=O)C1=O (configuration not stated) | 16.5 µM (inactive) |
| COc1ccc(/C=C2/C[N+](C)(C)C/C(=C/c3ccc(OC)cc3)C2=O)cc1 | > 68.7 µM (inactive) |
| NCCNCCCNC(=O)c1cc(-c2ccccc2)nc2ccccc12 | 46.3 µM (inactive) |
| O=C(O)c1cc2c(cc1CC(Cc1ccccc1)C(=O)O)CCC2 (configuration not stated) | > 100 µM (inactive) |
| CC(C)C(Sc1nc(-c2ccccc2)c(-c2ccccc2)[nH]1)C(=O)NN (configuration not stated) | > 100 µM (inactive) |
| O=C(c1ccco1)C1CC(c2c(O)ccc3ccccc23)=NN1 (configuration not stated) | 14.9 µM (inactive) |
| CC1=NN(C(=O)c2ccc(Cl)cc2)C(=O)/C1=C/c1ccc(Cl)cc1 | > 100 µM (inactive) |
| CS/C(C)=N/OC(=O)NCCCCNc1ccc(N=[N+]=[N-])cc1 | > 100 µM (inactive) |
| COC1CCN(N(C)C)O1 (configuration not stated) | > 100 µM (inactive) |
| CC(CCC(=O)O)C(=O)O (configuration not stated) | > 100 µM (inactive) |
| COC(=O)CCC(=O)N1CC1C (configuration not stated) | > 100 µM (inactive) |
| O=C1C[C@@H]2CCCC[C@@H]2C12SCCS2 | > 100 µM (inactive) |
| NC(=O)N1N=C2c3ccccc3SC[C@H]2[C@@H]1c1ccccc1 | 21.3 µM (inactive) |
| COc1ccccc1/C=C/c1cnccn1 | > 10 µM (inactive) |
| Cc1ccc2cccc3c2c1CC1(C3=O)S(=O)(=O)OCCOS1(=O)=O | > 100 µM (inactive) |
| CCOC(=O)/C(C(=O)Nc1cccc(C(F)(F)F)c1)=C(/N)N1CCCC1 | > 100 µM (inactive) |
| CCCCCCCCCCCCCCCC(=O)Nc1ccn(C2CC(OP(=O)(O)OCC3OC(n4cc(F)c(=O)[nH]c4=O)CC3OC(C)=O)C(CO)O2)c(=O)n1 (configuration not stated) | > 41.8 µM (inactive) |
| CCOCCOc1ccc(OCCOCC)cc1 | > 100 µM (inactive) |

====

Tested on: KM-20L2
MEASUREMENT_NOTES: NCI tumour cell line growth inhibition, 48 h
Calls of active or inactive are those of the source. No stated cut-off is given here; in the data, active = GI50 up to about 1.1 µM and inactive = higher.
QUANTITY_MEASURED: GI50

| COMPOUND | TEST_RESULT |
| --- | --- |
| CSCC(CO)NC(=O)/C=C/c1c(C)[nH]c(=O)[nH]c1=O (stereo not drawn) | 415 µM (inactive) |
| COc1ccc([C@@H]2CC(=O)N2)cc1 | > 100 µM (inactive) |
| NC(=O)N1N=C2c3ccccc3SC[C@H]2[C@@H]1c1ccccc1 | 20.2 µM (inactive) |

====

Tested on: Hs-578T
MEASUREMENT_NOTES: NCI tumour cell line growth inhibition, 48 h
Activity calls are given as the source filed them. No stated cut-off is given here; in the data, active = GI50 up to about 1.1 µM and inactive = higher.
Below is a list of entries, each paired with its recorded GI50 value.

| COMPOUND | MEASURED_ON | GI50 |
| --- | --- | --- |
| CNS(=O)(=O)c1ccccc1C(=N)c1ccccc1 | Hs-578T | > 100 µM (inactive) |
| COC(=O)C1(Cc2ccccc2)Cc2cc3c(cc2C1)CCC3 | Hs-578T | 34.4 µM (inactive) |
| CN(C)c1ccc(/C=C/C(=O)c2ccc(O)cc2)cc1 | Hs-578T | 17.4 µM (inactive) |
| CNC(=O)c1nnn(C2CCCCC2)c1S | Hs-578T | > 100 µM (inactive) |
| CC(C)(C)OC(=O)NC(CCC(=O)OCc1ccccc1)C(=O)NCCCO (stereo not given) | Hs-578T | > 100 µM (inactive) |
| C=CC1(CC/C(=C\[N+](=O)[O-])c2ccc(OC)c(OC)c2)OCC(C)(C)CO1 | Hs-578T | 24 µM (inactive) |
| COC(=O)[C@H](Cc1c[nH]c2ccccc12)NP(=O)(O)OCC1C=CC(n2cc(C)c(=O)[nH]c2=O)O1 (stereo not given in full) | Hs-578T | > 100 µM (inactive) |
| O=C(N/N=C\c1cccc2ccccc12)Nc1ccc([N+](=O)[O-])cc1 | Hs-578T | 25.4 µM (inactive) |
| CC(=O)O[C@H]1C[C@@H](OC(C)=O)[C@@](C)(O)[C@@H]2[C@@H](OC(C)=O)[C@@]3(O)[C@H](/C=C(/CO)[C@H]4O[C@H]4[C@@H](OC(C)=O)[C@@]12C)OC(=O)[C@@H]3C | Hs-578T | 8.43 µM (inactive) |
| CC(CCC(=O)O)C(=O)O (stereo not given) | Hs-578T | > 100 µM (inactive) |
| O=[N+]([O-])c1cc(-[n+]2cc([O-])on2)ccc1F | Hs-578T | 26.7 µM (inactive) |
| Cc1cc2ccccc2n2c1nc1ccc(O)cc12 | Hs-578T | > 10 µM (inactive) |
| CC(C)=CCC[C@@H](C)/C=C/C=C(\C)C(=O)CC[C@@H]1CC[N@+]2(C)CCCC[C@H]12 | Hs-578T | 96.4 µM (inactive) |
| O=C(c1ccco1)C1CC(c2c(O)ccc3ccccc23)=NN1 (stereo not given) | Hs-578T | 18.5 µM (inactive) |
| O=C1/C(=C/c2ccccc2)CCc2ccccc21 | Hs-578T | 19.8 µM (inactive) |
| CCCCCCCCCCCCCCCC(=O)Nc1ccn(C2CC(OP(=O)(O)OCC3OC(n4cc(F)c(=O)[nH]c4=O)CC3OC(C)=O)C(CO)O2)c(=O)n1 (stereo not given) | Hs-578T | 12.1 µM (inactive) |
| O=C1C2C=CC1C1C(=O)OC(=O)C21 (stereo not given) | Hs-578T | > 100 µM (inactive) |
| O=C1C(N2CCOCC2)=C(Cl)C(=O)c2ncccc21 | Hs-578T | 3.99 µM (inactive) |
| O=C(Nc1ccccc1C(=O)O)/C(=C/c1ccccc1)NC(=O)c1ccccc1 | Hs-578T | > 100 µM (inactive) |
| CC(=O)Nc1cc(C(=O)Nc2cc(C(=O)Nc3cc(C(=O)Nc4cc(C(=O)Nc5cc(C(=O)NCCC(=O)NCCCN(C)C)n(C)c5)n(C)c4)n(C)c3)n(C)c2)n(C)c1 | Hs-578T | 34.2 µM (inactive) |

====

Below is a list of entries, each paired with its recorded GI50 value.
Tested on: ACHN
MEASUREMENT_NOTES: NCI tumour cell line growth inhibition, 48 h
The source made the active and inactive calls. Cut-off read from the data, not from the text of the source: active = GI50 up to about 1.1 µM and inactive = higher.

| SMILES_STRING | MEASURED_ON | GI50 |
| --- | --- | --- |
| NC1=NC(Cn2nc(-c3ccccc3)c3ccccc3c2=O)=NNC(=O)N1 | ACHN | > 100 µM (inactive) |
| O=C(CCc1n[nH]c(=S)o1)Nc1ccccc1C(F)(F)F | ACHN | > 100 µM (inactive) |
| c1ccc2cc(CNCCCCNCCCNCc3ccc4ccccc4c3)ccc2c1 | ACHN | 1.42 µM (inactive) |
| O=C(CNc1ccccc1[N+](=O)[O-])Nn1c(-c2ccccc2)nc2ccccc2c1=O | ACHN | 22.2 µM (inactive) |
| Cc1ccc(C2=C(c3ccccc3)C(=O)C(c3ccccc3)=C2c2ccc(C)cc2)cc1 | ACHN | 32.3 µM (inactive) |
| CN(C)c1ccc(/C=C2\N=C(c3ccccc3)N(c3ccc4c(c3)Sc3cc(N5C(=O)/C(=C/c6ccc(N(C)C)cc6)N=C5c5ccccc5)ccc3N4)C2=O)cc1 | ACHN | 16.7 µM (inactive) |
| CC(C)=CCC[C@@H](C)/C=C/C=C(\C)C(=O)CC[C@@H]1CC[N@+]2(C)CCCC[C@H]12 | ACHN | > 100 µM (inactive) |
| CNc1ccccc1-c1nc2ccccc2c(=O)o1 | ACHN | > 100 µM (inactive) |
| O=C(Nc1ccccc1C(=O)O)/C(=C/c1ccccc1)NC(=O)c1ccccc1 | ACHN | > 100 µM (inactive) |
